System: OVKATE (Ovarian Carcinoma)
Assay: combination Emax (second highest fraction inhibited in the dose matrix, 72 h); higher = more inhibition; extreme values may be limits of the assay
Measurement Kind: combination Emax

// combination Emax lookup, key: Cc1c2c(nn1C)CSCc1cc(n(C)n1)CSc1cc(c3ccccc3c1)OCCCc1c(C(=O)O)n(C)c3c-2c(Cl)ccc13 [AZD5991] + CN(C)CCCOc1ccc(-c2ccc3ncc4c(c3c2)n(C2CCOCC2)c(=O)n4C)cn1 [AZD0156] (first compound max 1 µM, 7x7, partner max 1 µM)
0.247

###

System: DK-MG (Glioblastoma)
Assay: Bliss excess, mean over the matrix (fraction); higher = more synergy
Measurement Kind: Bliss excess
No unit in the answer, please; the number alone is enough.

For orientation, consider the following solved cases.
>>> obs_value("NC1(C(=O)N[C@@H](CCO)c2ccc(Cl)cc2)CCN(c2ncnc3[nH]ccc23)CC1 [Capivasertib] + C[C@@H]1COCCN1C2=NC(=NC(=C2)C3(CC3)[S@](=N)(=O)C)C4=C5C=CNC5=NC=C4 [AZD6738] (first compound max 10 µM, 7x7, partner max 10 µM)")
-0.0405
>>> obs_value("COc1cccc(OCCCN)c1-c1cc(Nc2cnc(C#N)cn2)n[nH]1 [Prexasertib] + C=CCn1c(=O)c2cnc(Nc3ccc(N4CCN(C)CC4)cc3)nc2n1-c1cccc(C(C)(C)O)n1 [AZD1775] (first compound max 1 µM, partner max 1 µM)")
-0.0125
>>> obs_value("NC1(C(=O)N[C@@H](CCO)c2ccc(Cl)cc2)CCN(c2ncnc3[nH]ccc23)CC1 [Capivasertib] + CC(C)n1c(=O)n(C)c2cnc3cc(F)c(-c4ccc(OCCCN5CCCCC5)nc4)cc3c21 [AZD1390] (first compound max 10 µM, 7x7, partner max 0.3 µM)")
-0.0847
>>> obs_value("Cc1c2c(nn1C)CSCc1cc(n(C)n1)CSc1cc(c3ccccc3c1)OCCCc1c(C(=O)O)n(C)c3c-2c(Cl)ccc13 [AZD5991] + C=CCn1c(=O)c2cnc(Nc3ccc(N4CCN(C)CC4)cc3)nc2n1-c1cccc(C(C)(C)O)n1 [AZD1775] (first compound max 1 µM, partner max 1 µM)")
0.0168

// Bliss excess lookup, key: C[C@@H](c1ccc2nccn2c1)n1nnc2ncc(-c3cnn(C)c3)nc21 [Savolitinib] + CN(CC[C@H](CSC1=CC=CC=C1)NC2=C(C=C(C=C2)S(=O)(=O)NC(=O)C3=CC=C(C=C3)N4CCC(CC4)[C@H](C5=CC=CC=C5C6=CC=C(C=C6)Cl)O)S(=O)(=O)C(F)(F)F)CCO [AZD4320] (first compound max 1 µM, 7x7, partner max 1 µM)
-0.0585

###

Here, each record is paired with measured Bliss excess data.
Test system: NCI-H2452 (Mesothelioma)
Experiment: Bliss excess, mean over the matrix (fraction); higher = more synergy
No unit in the answer, please; the number alone is enough.

>>> obs_value("CC1(C)CCC(CN2CCN(c3ccc(C(=O)NS(=O)(=O)c4ccc(NCC5CCOCC5)c([N+](=O)[O-])c4)c(Oc4cnc5[nH]ccc5c4)c3)CC2)=C(c2ccc(Cl)cc2)C1 [Venetoclax] + C=CCn1c(=O)c2cnc(Nc3ccc(N4CCN(C)CC4)cc3)nc2n1-c1cccc(C(C)(C)O)n1 [AZD1775] (first compound max 1 µM, partner max 1 µM)")
0.0036
>>> obs_value("CN(CCO)CC[C@H](CSc1ccccc1)Nc1ccc(S(=O)(=O)NC(=O)c2ccc(N3CCC([C@@H](O)c4ccccc4-c4ccc(Cl)cc4)CC3)cc2)cc1S(=O)(=O)C(F)(F)F [AZD4320] + C1CN(CCC1(C(=O)N[C@@H](CCO)C2=CC=C(C=C2)Cl)N)C3=NC=NC4=C3C=CN4 [Capivasertib] (first compound max 1 µM, 7x7, partner max 3 µM)")
-0.0757

// Bliss excess lookup, key: Cn1cnc2c(F)c(Nc3ccc(Br)cc3Cl)c(C(=O)NOCCO)cc21 [Selumetinib] + C=CCn1c(=O)c2cnc(Nc3ccc(N4CCN(C)CC4)cc3)nc2n1-c1cccc(C(C)(C)O)n1 [AZD1775] (first compound max 10 µM, partner max 1 µM)
-0.0288

###

Test system: TK (B-Cell Non-Hodgkin's Lymphoma)
Test: combination Emax (second highest fraction inhibited in the dose matrix, 72 h); higher = more inhibition; extreme values may be limits of the assay
Measurement Kind: combination Emax
No unit in the answer, please; the number alone is enough.

For orientation, consider the following solved cases.
>>> obs_value("CN(CCO)CC[C@H](CSc1ccccc1)Nc1ccc(S(=O)(=O)NC(=O)c2ccc(N3CCC([C@@H](O)c4ccccc4-c4ccc(Cl)cc4)CC3)cc2)cc1S(=O)(=O)C(F)(F)F [AZD4320] + C1CN(CCC1(C(=O)N[C@@H](CCO)C2=CC=C(C=C2)Cl)N)C3=NC=NC4=C3C=CN4 [Capivasertib] (first compound max 1 µM, 7x7, partner max 3 µM)")
0.97
>>> obs_value("CC(=O)Nc1cccc(-n2c(=O)n(C3CC3)c(=O)c3c(Nc4ccc(I)cc4F)n(C)c(=O)c(C)c32)c1 [Trametinib] + Cc1nc(-c2cn3c(n2)-c2ccc(-c4cnn(C(C)(C)C(N)=O)c4)cc2OCC3)n(C(C)C)n1 [Taselisib] (first compound max 1 µM, 7x7, partner max 10 µM)")
0.169

// combination Emax lookup, key: COc1nnc2ccc(N3CCC(c4ccc(OCCN5CCN(C)C(=O)[C@H]5C)cc4)CC3)nn12 [AZD5153] + Cc1c2c(nn1C)CSCc1cc(n(C)n1)CSc1cc(c3ccccc3c1)OCCCc1c(C(=O)O)n(C)c3c-2c(Cl)ccc13 [AZD5991] (first compound max 1 µM, 7x7, partner max 1 µM)
0.677

###

Test system: A375 (Melanoma)
Experiment: Bliss excess, mean over the matrix (fraction); higher = more synergy
Here, each record is paired with measured Bliss excess data.

For orientation, consider the following solved cases.
>>> obs_value("Cn1cnc2c(F)c(Nc3ccc(Br)cc3Cl)c(C(=O)NOCCO)cc21 [Selumetinib] + CCN(CCO)CCCOc1ccc2c(Nc3cc(CC(=O)Nc4cccc(F)c4)[nH]n3)ncnc2c1 [AZD2811] (first compound max 10 µM, 7x7, partner max 1 µM)")
-0.0274
>>> obs_value("COc1cc2c(cc1OCCCCCOc1cc3c(cc1OC)C(=O)N1C=C(C)C[C@H]1C=N3)N=C[C@@H]1CC(C)=CN1C2=O [SG3199] + O=C(c1cc(Cc2n[nH]c(=O)c3ccccc23)ccc1F)N1CCN(C(=O)C2CC2)CC1 [Olaparib] (first compound max 0.001 µM, 7x7, partner max 10 µM)")
-0.0304
>>> obs_value("Cc1c2c(nn1C)CSCc1cc(n(C)n1)CSc1cc(c3ccccc3c1)OCCCc1c(C(=O)O)n(C)c3c-2c(Cl)ccc13 [AZD5991] + CN(C)CCCOc1ccc(-c2ccc3ncc4c(c3c2)n(C2CCOCC2)c(=O)n4C)cn1 [AZD0156] (first compound max 1 µM, 7x7, partner max 1 µM)")
0.0053
>>> obs_value("CN(CCO)CC[C@H](CSc1ccccc1)Nc1ccc(S(=O)(=O)NC(=O)c2ccc(N3CCC([C@@H](O)c4ccccc4-c4ccc(Cl)cc4)CC3)cc2)cc1S(=O)(=O)C(F)(F)F [AZD4320] + C[C@@H](Nc1cc(F)cc(F)c1)c1cc(C(=O)N(C)C)cc2c(=O)cc(N3CCOCC3)oc12 [AZD8186] (first compound max 1 µM, 7x7, partner max 3 µM)")
0
>>> obs_value("NC1(C(=O)N[C@@H](CCO)c2ccc(Cl)cc2)CCN(c2ncnc3[nH]ccc23)CC1 [Capivasertib] + CCN(CCO)CCCOc1ccc2c(Nc3cc(CC(=O)Nc4cccc(F)c4)[nH]n3)ncnc2c1 [AZD2811] (first compound max 10 µM, 7x7, partner max 1 µM)")
-0.0008

// Bliss excess lookup, key: C[C@@H](Nc1cc(F)cc(F)c1)c1cc(C(=O)N(C)C)cc2c(=O)cc(N3CCOCC3)oc12 [AZD8186] + CC(=O)c1c(C)c2cnc(Nc3ccc(N4CCNCC4)cn3)nc2n(C2CCCC2)c1=O [Palbociclib] (first compound max 10 µM, 7x7, partner max 10 µM)
0.0781

Try this compound next: Cn1cnc2c(F)c(Nc3ccc(Br)cc3Cl)c(C(=O)NOCCO)cc21 [Selumetinib] + C=CCn1c(=O)c2cnc(Nc3ccc(N4CCN(C)CC4)cc3)nc2n1-c1cccc(C(C)(C)O)n1 [AZD1775] (first compound max 10 µM, partner max 1 µM)
-0.0187

###

Test system: BT-474 (Breast Carcinoma)
Experiment: Bliss excess, mean over the matrix (fraction); higher = more synergy
Measurement Kind: Bliss excess
No unit in the answer, please; the number alone is enough.

For orientation, consider the following solved cases.
>>> obs_value("C[C@@H](c1ccc2nccn2c1)n1nnc2ncc(-c3cnn(C)c3)nc21 [Savolitinib] + CC1(C)CCC(CN2CCN(c3ccc(C(=O)NS(=O)(=O)c4ccc(NCC5CCOCC5)c([N+](=O)[O-])c4)c(Oc4cnc5[nH]ccc5c4)c3)CC2)=C(c2ccc(Cl)cc2)C1 [Venetoclax] (first compound max 1 µM, 7x7, partner max 1 µM)")
-0.0682
>>> obs_value("Cc1cc2ncnn2cc1Nc1ncc2c(n1)n(C1CCOCC1)c(=O)n2C [AZD7648] + C=CCn1c(=O)c2cnc(Nc3ccc(N4CCN(C)CC4)cc3)nc2n1-c1cccc(C(C)(C)O)n1 [AZD1775] (first compound max 10 µM, partner max 1 µM)")
0.0103
>>> obs_value("CC1(C)CCC(CN2CCN(c3ccc(C(=O)NS(=O)(=O)c4ccc(NCC5CCOCC5)c([N+](=O)[O-])c4)c(Oc4cnc5[nH]ccc5c4)c3)CC2)=C(c2ccc(Cl)cc2)C1 [Venetoclax] + C[C@@H](Nc1cc(F)cc(F)c1)c1cc(C(=O)N(C)C)cc2c(=O)cc(N3CCOCC3)oc12 [AZD8186] (first compound max 1 µM, 7x7, partner max 3 µM)")
-0.055

// Bliss excess lookup, key: Cc1cc2ncnn2cc1Nc1ncc2c(n1)n(C1CCOCC1)c(=O)n2C [AZD7648] + CN(C)CCCOc1ccc(-c2ccc3ncc4c(c3c2)n(C2CCOCC2)c(=O)n4C)cn1 [AZD0156] (first compound max 10 µM, 7x7, partner max 1 µM)
0.0241
